We begin with a simple list: items and their reported solubility at 4 h.
- assayText: physchem
- reportedConditions: oil or lipid, thermodynamic from solid, Solubility in MCT (mg/mL)
attributeMeasured: solubility at 4 h

compound: COC(=O)N1[C@@H]2CCC[C@H]1C[C@H](N(C)c1nc(Nc3cc(C)[nH]n3)cc(O[C@H]3CCOC3)n1)C2 [Compound 27]
attributeMeasured: solubility at 4 h
result: < 5000 µg/mL
--
compound: Cc1cc(Nc2cc(OC3COC3)nc(N(C)[C@@H]3C[C@H]4CCC[C@@H](C3)N4C(=O)CC3CC3)n2)n[nH]1 [Compound 35]
attributeMeasured: solubility at 4 h
result: < 5000 µg/mL
--
compound: Cc1cc(Nc2cc(O[C@H]3CCOC3)nc(N(C)[C@@H]3C[C@H]4CCC[C@@H](C3)N4CC(=O)N3CCCC3)n2)n[nH]1 [Compound 31]
attributeMeasured: solubility at 4 h
result: < 5000 µg/mL
--
compound: CCNC(=O)CN1[C@@H]2CCC[C@H]1C[C@H](N(C)c1nc(Nc3cc(C)[nH]n3)cc(O[C@@H]3CCOC3)n1)C2 [Compound 20]
attributeMeasured: solubility at 4 h
result: < 5000 µg/mL
--
compound: Cc1cc(Nc2cc(O[C@@H]3CCOC3)nc(N(C)[C@@H]3C[C@H]4CCC[C@@H](C3)N4C(=O)OC3CCOCC3)n2)n[nH]1 [Compound 21]
attributeMeasured: solubility at 4 h
result: 5000 to 10000 µg/mL
--
compound: COC(=O)N1[C@@H]2CCC[C@H]1C[C@H](N(C)c1nc(Nc3cc(C)[nH]n3)cc(O[C@@H]3CCOC3)n1)C2 [Compound 23]
attributeMeasured: solubility at 4 h
result: 5000 to 10000 µg/mL
--
compound: COCCC(=O)N1[C@@H]2CCC[C@H]1C[C@H](N(C)c1nc(Nc3cc(C)[nH]n3)cc(O[C@@H]3CCOC3)n1)C2 [Compound 25]
attributeMeasured: solubility at 4 h
result: < 5000 µg/mL
--
compound: CCOC(=O)N1[C@@H]2CCC[C@H]1C[C@H](N(C)c1nc(Nc3cc(C)[nH]n3)cc(O[C@@H]3CCOC3)n1)C2 [Compound 24]
attributeMeasured: solubility at 4 h
result: < 5000 µg/mL
--
compound: COCCC(=O)N1[C@@H]2CCC[C@H]1C[C@H](N(C)c1nc(Nc3cc(C)[nH]n3)cc(O[C@H]3CCOC3)n1)C2 [Compound 29]
attributeMeasured: solubility at 4 h
result: < 5000 µg/mL
--
compound: COCCOC(=O)N1[C@@H]2CCC[C@H]1C[C@H](N(C)c1nc(Nc3cc(C)[nH]n3)cc(O[C@@H]3CCOC3)n1)C2 [Compound 22]
attributeMeasured: solubility at 4 h
result: < 5000 µg/mL
--
compound: Cc1cc(Nc2cc(OC3COC3)nc(N(C)[C@@H]3C[C@H]4CCC[C@@H](C3)N4CC(=O)N3CCCC3)n2)n[nH]1 [Compound 38]
attributeMeasured: solubility at 4 h
result: < 5000 µg/mL
--
compound: CCS(=O)(=O)N1[C@@H]2CCC[C@H]1C[C@H](N(C)c1nc(Nc3cc(C)[nH]n3)cc(C3CCOCC3)n1)C2 [Compound 1]
attributeMeasured: solubility at 4 h
result: < 5000 µg/mL
--
compound: Cc1cc(Nc2cc(O[C@H]3CCOC3)nc(N(C)[C@@H]3C[C@H]4CCC[C@@H](C3)N4C(=O)CC3CC3)n2)n[nH]1 [Compound 30]
attributeMeasured: solubility at 4 h
result: < 5000 µg/mL

---

- assayText: physchem
- reportedConditions: organic solvent or mixture, thermodynamic from solid, Solubility in Diisopropyl adipate (mg/mL)
We begin with a simple list: items and their reported solubility at 4 h.

smi: COCCC(=O)N1[C@@H]2CCC[C@H]1C[C@H](N(C)c1nc(Nc3cc(C)[nH]n3)cc(O[C@H]3CCOC3)n1)C2
solubility at 4 h: > 10000 µg/mL
//
smi: CCNC(=O)CN1[C@@H]2CCC[C@H]1C[C@H](N(C)c1nc(Nc3cc(C)[nH]n3)cc(O[C@H]3CCOC3)n1)C2
solubility at 4 h: > 10000 µg/mL
//
smi: Cc1cc(Nc2cc(O[C@H]3CCOC3)nc(N(C)[C@@H]3C[C@H]4CCC[C@@H](C3)N4CC(=O)N3CCCC3)n2)n[nH]1
solubility at 4 h: < 5000 µg/mL

---

We begin with a simple list: items and their reported solubility at 4 h.
- assayText: physchem
- reportedConditions: organic solvent or mixture, thermodynamic from solid, Solubility in Propylene glycol (mg/mL)

compound: Cc1cc(Nc2cc(OC3COC3)nc(N(C)[C@@H]3C[C@H]4CCC[C@@H](C3)N4CC(=O)N3CCCC3)n2)n[nH]1 [Compound 38]
solubility at 4 h: < 5000 µg/mL

compound: COCCC(=O)N1[C@@H]2CCC[C@H]1C[C@H](N(C)c1nc(Nc3cc(C)[nH]n3)cc(O[C@H]3CCOC3)n1)C2 [Compound 29]
solubility at 4 h: > 10000 µg/mL

compound: CCS(=O)(=O)N1[C@@H]2CCC[C@H]1C[C@H](N(C)c1nc(Nc3cc(C)[nH]n3)cc(C3CCOCC3)n1)C2 [Compound 1]
solubility at 4 h: > 10000 µg/mL

compound: CCOC(=O)N1[C@@H]2CCC[C@H]1C[C@H](N(C)c1nc(Nc3cc(C)[nH]n3)cc(O[C@@H]3CCOC3)n1)C2 [Compound 24]
solubility at 4 h: < 5000 µg/mL

compound: CCC(=O)N1[C@@H]2CCC[C@H]1C[C@H](N(C)c1nc(Nc3cc(C)[nH]n3)cc(O[C@H]3CCOC3)n1)C2 [Compound 28]
solubility at 4 h: > 10000 µg/mL

compound: Cc1cc(Nc2cc(OC3COC3)nc(N(C)[C@@H]3C[C@H]4CCC[C@@H](C3)N4C(=O)CC3CC3)n2)n[nH]1 [Compound 35]
solubility at 4 h: 5000 to 10000 µg/mL

compound: COCCC(=O)N1[C@@H]2CCC[C@H]1C[C@H](N(C)c1nc(Nc3cc(C)[nH]n3)cc(O[C@@H]3CCOC3)n1)C2 [Compound 25]
solubility at 4 h: > 10000 µg/mL

compound: Cc1cc(Nc2cc(O[C@H]3CCOC3)nc(N(C)[C@@H]3C[C@H]4CCC[C@@H](C3)N4C(=O)CC3CC3)n2)n[nH]1 [Compound 30]
solubility at 4 h: < 5000 µg/mL

compound: COC(=O)N1[C@@H]2CCC[C@H]1C[C@H](N(C)c1nc(Nc3cc(C)[nH]n3)cc(OC3COC3)n1)C2 [Compound 36]
solubility at 4 h: > 10000 µg/mL

compound: CCNC(=O)CN1[C@@H]2CCC[C@H]1C[C@H](N(C)c1nc(Nc3cc(C)[nH]n3)cc(O[C@H]3CCOC3)n1)C2 [Compound 32]
solubility at 4 h: > 10000 µg/mL

compound: CCNC(=O)CN1[C@@H]2CCC[C@H]1C[C@H](N(C)c1nc(Nc3cc(C)[nH]n3)cc(OC3COC3)n1)C2 [Compound 37]
solubility at 4 h: < 5000 µg/mL

compound: COCCOC(=O)N1[C@@H]2CCC[C@H]1C[C@H](N(C)c1nc(Nc3cc(C)[nH]n3)cc(O[C@@H]3CCOC3)n1)C2 [Compound 22]
solubility at 4 h: > 10000 µg/mL

compound: Cc1cc(Nc2cc(O[C@@H]3CCOC3)nc(N(C)[C@@H]3C[C@H]4CCC[C@@H](C3)N4C(=O)CC3CC3)n2)n[nH]1 [Compound 26]
solubility at 4 h: < 5000 µg/mL

---

- system: UniProt P29597
- Sequence (P29597 whole entry): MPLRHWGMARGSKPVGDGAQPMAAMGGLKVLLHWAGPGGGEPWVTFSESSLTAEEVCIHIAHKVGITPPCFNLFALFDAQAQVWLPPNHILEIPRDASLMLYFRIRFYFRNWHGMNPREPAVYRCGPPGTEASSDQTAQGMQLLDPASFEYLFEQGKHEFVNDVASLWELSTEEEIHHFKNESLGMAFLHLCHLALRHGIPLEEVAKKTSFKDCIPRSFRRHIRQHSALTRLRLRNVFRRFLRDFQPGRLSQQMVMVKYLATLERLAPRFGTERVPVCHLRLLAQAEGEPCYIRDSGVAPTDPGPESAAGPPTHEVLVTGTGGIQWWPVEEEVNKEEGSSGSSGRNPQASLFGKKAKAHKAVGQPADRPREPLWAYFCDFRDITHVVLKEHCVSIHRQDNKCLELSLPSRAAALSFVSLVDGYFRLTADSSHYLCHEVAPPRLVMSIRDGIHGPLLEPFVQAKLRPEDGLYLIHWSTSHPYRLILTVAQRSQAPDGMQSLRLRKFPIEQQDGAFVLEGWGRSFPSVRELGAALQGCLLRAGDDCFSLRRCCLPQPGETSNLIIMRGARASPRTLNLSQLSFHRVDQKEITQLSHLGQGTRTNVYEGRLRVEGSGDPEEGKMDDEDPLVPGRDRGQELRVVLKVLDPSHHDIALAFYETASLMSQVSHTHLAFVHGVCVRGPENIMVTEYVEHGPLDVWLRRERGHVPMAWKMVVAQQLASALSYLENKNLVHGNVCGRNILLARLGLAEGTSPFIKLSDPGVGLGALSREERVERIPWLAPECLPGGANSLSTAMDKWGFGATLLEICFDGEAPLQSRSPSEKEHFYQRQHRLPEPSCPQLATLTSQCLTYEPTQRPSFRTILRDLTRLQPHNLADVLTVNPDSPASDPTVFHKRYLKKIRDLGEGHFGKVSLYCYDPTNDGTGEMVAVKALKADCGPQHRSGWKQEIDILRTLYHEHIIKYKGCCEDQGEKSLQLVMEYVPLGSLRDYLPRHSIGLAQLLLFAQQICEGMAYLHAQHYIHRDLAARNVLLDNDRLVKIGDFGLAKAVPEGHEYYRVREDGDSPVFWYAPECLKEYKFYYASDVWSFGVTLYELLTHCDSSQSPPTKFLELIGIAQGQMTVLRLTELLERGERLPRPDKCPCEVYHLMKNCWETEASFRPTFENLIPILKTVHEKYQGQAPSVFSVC
- assayText: Biochemical JAK and Tyk2 Kinase Assays (LanthaScreen), Tyk2
- reportedConditions: 10 μM ATP (Km); pIC50 converted to pKi by Cheng-Prusoff; read-out: Tyk 2 (pKi) (converted)
attributeMeasured: Ki

smi: Cc1cc(Nc2cc(O[C@H]3CCOC3)nc(N(C)[C@@H]3C[C@H]4CCC[C@@H](C3)N4CC(=O)N3CCCC3)n2)n[nH]1
system: UniProt P29597
result: 0.1 to 1 nM
--
smi: COC(=O)N1[C@@H]2CCC[C@H]1C[C@H](N(C)c1nc(Nc3cc(C)[nH]n3)cc(O[C@@H]3CCOC3)n1)C2
system: UniProt P29597
result: 0.1 to 1 nM
--
smi: COCCOC(=O)N1[C@@H]2CCC[C@H]1C[C@H](N(C)c1nc(Nc3cc(C)[nH]n3)cc(O[C@@H]3CCOC3)n1)C2
system: UniProt P29597
result: 0.1 to 1 nM

---

We begin with a simple list: items and their reported solubility at 4 h.
- assayText: physchem
- reportedConditions: oil or lipid, thermodynamic from solid, Solubility in MCT (mg/mL)

molecule: Cc1cc(Nc2cc(O[C@@H]3CCOC3)nc(N(C)[C@@H]3C[C@H]4CCC[C@@H](C3)N4CC(=O)N3CCCC3)n2)n[nH]1 [Compound 19]
solubility at 4 h: < 5000 µg/mL
--
molecule: Cc1cc(Nc2cc(O[C@@H]3CCOC3)nc(N(C)[C@@H]3C[C@H]4CCC[C@@H](C3)N4C(=O)CC3CC3)n2)n[nH]1 [Compound 26]
solubility at 4 h: < 5000 µg/mL
--
molecule: CCNC(=O)CN1[C@@H]2CCC[C@H]1C[C@H](N(C)c1nc(Nc3cc(C)[nH]n3)cc(OC3COC3)n1)C2 [Compound 37]
solubility at 4 h: < 5000 µg/mL
